- Tested on: CCRIS mutagenicity, Ames/micronucleus/aberration tests
- Assay Text: CCRIS mutagenicity studies
- Details: Test System: AMES SALMONELLA TYPHIMURIUM; Strain/Indicator: TA1535; Metabolic Activation: RAT, LIVER, S-9, AROCLOR 1254 (10%); Method: PREINCUBATION
Calls of active or inactive are those of the source. The rule behind the calls is not given here.
Entry note: the call must match one of active, inactive

> print(dat)
                                   compound                               system.name     group
1                                  CN(C)CCO  CCRIS mutagenicity, Ames/micronucleus/aberration tests  inactive
2                                  [O]=[Zr]  CCRIS mutagenicity, Ames/micronucleus/aberration tests  inactive
3                 CNC[C@H](O)c1ccc(O)c(O)c1  CCRIS mutagenicity, Ames/micronucleus/aberration tests  inactive
4                                      NCCO  CCRIS mutagenicity, Ames/micronucleus/aberration tests  inactive
5                        CCN(CC)c1ccc(N)cc1  CCRIS mutagenicity, Ames/micronucleus/aberration tests  inactive
6  COc1ccc([N+](=O)[O-])cc1N=Nc1c(O)c(C(=O)Nc2cccc([N+](=O)[O-])c2)cc2ccccc12  CCRIS mutagenicity, Ames/micronucleus/aberration tests  inactive

For "O=[N+]([O-])c1ccc(Nc2ccccc2O)c([N+](=O)[O-])c1" , which call appears in the assay record?
active

For "CCCCOC(=O)c1ccccc1C(=O)OCc1ccccc1" , which call appears in the assay record?
inactive

----------
- System: CCRIS mutagenicity, Ames/micronucleus/aberration tests
- Assay Text: CCRIS mutagenicity studies
- Details: Test System: AMES SALMONELLA TYPHIMURIUM; Strain/Indicator: TA1537; Metabolic Activation: RAT, LIVER, S-9, AROCLOR 1254; Method: STANDARD PLATE
The source made the active and inactive calls. No rule for the calls is given here.
Entry note: the call must match one of T (active), F (inactive)

Molecule	Group
Cc1ccc(NS(=O)(=O)c2cccc3cccnc23)cc1	F
Oc1ccc(O)c2c(O)c3ccccc3c(O)c12	T
N#CCCNCCC#N	F
Cc1c(C)c2c(c(C)c1O)CC[C@@](C)(CCC[C@H](C)CCC[C@H](C)CCCC(C)C)O2	F
O=C(O)C(Cl)Cl	F
Cc1cc(N)c(C)c([N+](=O)[O-])c1N	F

For "[O]=[Zr]" , which call appears in the assay record?
F

For "Nc1nc(Cl)cc(Cl)n1" , which call appears in the assay record?
F

----------
- Tested on: CCRIS mutagenicity, Ames/micronucleus/aberration tests
- Assay Text: CCRIS mutagenicity studies
- Details: Test System: AMES SALMONELLA TYPHIMURIUM; Strain/Indicator: TA98; Metabolic Activation: HAMSTER, LIVER, S-9, AROCLOR 1254 (10%); Method: PREINCUBATION
- From the text: The CCRIS database contains chemical records with carcinogenicity, mutagenicity, tumor promotion, and tumor inhibition test results. It was developed by the National Cancer Institute (NCI). Data are derived from studies cited in primary journals, current awareness tools, NCI reports, and other sources. Test results have been reviewed by experts in carcinogenesis and mutagenesis. CCRIS provides historical information from the years 1985 - 2011. It is no longer updated. […]
Activity calls are given as the source filed them. How the calls were made is not given here.
Entry note: the call must match one of active, inactive

Example results:
> print(dat)
                             compound                               system.name     group
1  CC(O)c1ccccc1 (stereo unspecified)  CCRIS mutagenicity, Ames/micronucleus/aberration tests  inactive
2                               CNCCO  CCRIS mutagenicity, Ames/micronucleus/aberration tests  inactive
3                    C=CCc1ccc(OC)cc1  CCRIS mutagenicity, Ames/micronucleus/aberration tests  inactive
4    CCCCC(CC)CN (stereo unspecified)  CCRIS mutagenicity, Ames/micronucleus/aberration tests  inactive
5           CNC[C@H](O)c1ccc(O)c(O)c1  CCRIS mutagenicity, Ames/micronucleus/aberration tests  inactive
6  CCCN(CCC)S(=O)(=O)c1ccc(C(=O)O)cc1  CCRIS mutagenicity, Ames/micronucleus/aberration tests  inactive

For "O=c1nc(O)n(Cl)c(=O)n1Cl" , which call appears in the assay record?
inactive

For "ClC1=C(Cl)[C@]2(Cl)[C@@H]3[C@H]4C[C@H]([C@@H]5O[C@H]45)[C@@H]3[C@@]1(Cl)C2(Cl)Cl" , which call appears in the assay record?
inactive

For "CCCCOC(=O)c1ccccc1C(=O)OCc1ccccc1" , which call appears in the assay record?
inactive

For "Cc1ccc(OP(=O)(Oc2ccc(C)cc2C)Oc2ccc(C)cc2C)c(C)c1" , which call appears in the assay record?
inactive

For C=C(C)C(=O)OCC(Br)CBr (stereo unspecified) , which call appears in the assay record?
active

For "N#C/C=C/C#N" , which call appears in the assay record?
inactive

For "Cc1ccc(C#N)cc1" , which call appears in the assay record?
inactive

For "CCCCCCCCCCCCOS(=O)(=O)O" , which call appears in the assay record?
inactive

For "O=C(O)CNCP(=O)(O)O" , which call appears in the assay record?
inactive

For "CC(C)(C)OOC(=O)c1ccccc1" , which call appears in the assay record?
active

For "COc1ccc(C(=O)c2ccccc2O)c(O)c1" , which call appears in the assay record?
inactive

For "[O]=[Zr]" , which call appears in the assay record?
inactive
